test: physchem; conditions: water
Readout Type: solubility

# get_value(readout='solubility', item= O=P(O)(O)C(Cl)(Cl)P(=O)(O)O [clodronate] )
≥ 100 mg/mL
